Recorded values, source PubChem BioAssay.

# testDetails: fission yeast growth modulation, primary screen, strain 972, OD600, 24 h, no modulator (AID 1090);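 also: basal condition with compound alone and no growth modifier present; test concentration not given here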
# measurementContext: S. pombe 972 growth, higher = more signal, called active from +8 up or from −8 down
measuredMetric: z-score
Number only, no unit.

Known results for molecules:
smilesrecord=COCCn1c(C(=O)N2CCCC2)cc2c1C[C@H]1CN(C(=O)c3ccccc3)[C@@](Cc3ccc(F)cc3)(C(=O)OC)[C@@H]21 measuredmetric=z-score recordedresult=0.0582
smilesrecord=Cc1ccc(S[C@]2(C(=O)NCC(F)(F)F)CC(=O)N(C(C)C)[C@@H]2c2ccc(CO)cc2I)cc1 measuredmetric=z-score recordedresult=-0.704
smilesrecord=CC(C)OC(=O)C=C1C[C@@H](c2ccccc2C(F)(F)F)O[C@@H](c2ccccc2C(F)(F)F)O1 measuredmetric=z-score recordedresult=1.17
smilesrecord=CC(C)N1C(=O)c2ccccc2[C@](C)(C(=O)NCc2ccccc2)[C@@H]1c1ccc(CO)cc1 measuredmetric=z-score recordedresult=-1.16
smilesrecord=O=C(O)[C@@]1(CCS(=O)(=O)c2ccccc2)COC(c2ccc(OCCCO)cc2)=N1 measuredmetric=z-score recordedresult=-2.3
smilesrecord=COCCCNC(=O)[C@@]1(Cc2ccccc2N=[N+]=[N-])N=C(c2ccc(OCCCO)cc2)O[C@H]1c1ccccc1N=[N+]=[N-] measuredmetric=z-score recordedresult=-0.143

Lookup: For `C=CCOC(=O)[C@@H]1[C@H]2C(=O)O[C@H](c3ccccc3)[C@H](c3ccccc3)N2[C@H](c2ccc(OCCOC(=O)[C@@H]3C[C@@H]4C(=O)N5CCC[C@H]5C(=O)N4[C@@H]3c3ccc(O)cc3)cc2)[C@@]12C(=O)Nc1ccc(I)cc12` , what is its reported z-score?
Found: 0.687

Lookup: Now consider `COC(=O)[C@@]1(Cc2ccc(F)cc2)[C@H]2c3cc(C(=O)N(C)C)n(Cc4ccc(S(C)(=O)=O)cc4)c3C[C@H]2CN1C(=O)c1ccccc1` and answer again.
Found: 1.21

Lookup: Now consider `COc1ccc([Si](C)(C)[C@H]2[C@H](CC(=O)N3CCC[C@H]3CO)O[C@@]3(C(=O)N(Cc4cccc(N5C(=O)c6cccc7cccc5c67)c4)c4ccccc43)[C@@H]2C)cc1` and answer again.
Found: 0.696

Lookup: Now consider `C=CCOC(=O)[C@H]1[C@@H]2C(=O)O[C@@H](c3ccccc3)[C@@H](c3ccccc3)N2[C@@H](c2ccc(OCCOC(=O)[C@@H]3C[C@@H]4C(=O)N5CCC[C@H]5C(=O)N4[C@@H]3c3cccc(OCCO)c3)cc2)[C@]12C(=O)Nc1ccccc12` and answer again.
Found: 0.983

* * *

# measuredTarget: E3 ubiquitin-protein ligase XIAP (Homo sapiens) (UniProt P98170)
# Sequence (P98170 whole entry, looked up): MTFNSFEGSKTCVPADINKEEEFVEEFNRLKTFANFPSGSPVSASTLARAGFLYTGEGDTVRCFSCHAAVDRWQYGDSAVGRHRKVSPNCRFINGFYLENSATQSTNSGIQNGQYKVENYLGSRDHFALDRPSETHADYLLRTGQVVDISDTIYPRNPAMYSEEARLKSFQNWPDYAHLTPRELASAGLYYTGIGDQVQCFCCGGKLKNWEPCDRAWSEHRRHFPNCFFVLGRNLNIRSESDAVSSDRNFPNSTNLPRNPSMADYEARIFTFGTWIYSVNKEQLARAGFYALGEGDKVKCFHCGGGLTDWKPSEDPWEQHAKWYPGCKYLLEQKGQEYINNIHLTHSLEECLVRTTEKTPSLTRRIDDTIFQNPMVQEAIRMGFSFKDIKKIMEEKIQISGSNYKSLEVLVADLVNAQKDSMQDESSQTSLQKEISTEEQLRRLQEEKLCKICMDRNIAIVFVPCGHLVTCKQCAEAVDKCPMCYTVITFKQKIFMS
# testDetails: XIAP binders, primary screen, biophysical, small-molecule microarray, fluorescence 635 nm (AID 1181);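 also: score merges 667 nm emission and signal to noise over triplicate slides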
# measurementContext: small-molecule microarray binding, higher = more signal
Class (by composite z-score) -- lo = under -0.1, mid = from -0.1 up to 0.2, hi = 0.2 and over

Worked examples, 8 compounds total:
compound="O=C1NC(=O)C2C1C=CC(C(O)C(c1ccccc1)c1ccccc1)N2Nc1ccc(Cl)cc1Cl (centres undefined)" assignedcategory=hi
compound="O=C1OCCC/C=C\\[C@H]2OC34C=CCN(Cn5nnc6ccccc65)C(=O)[C@H]3N(CCCCCCO)C(=O)[C@@H]4C12 (some centres undefined)" assignedcategory=lo
compound=[N-]=[N+]=NCc1ccccc1[C@H]1OC(c2ccc(OCCCO)cc2)=N[C@@]1(Cc1ccccc1)C(=O)NCc1ccccc1 assignedcategory=hi
compound=COC(=O)c1c(CC[C@@H](CO)NC(=O)N[C@@H](C)Cn2cc(C3(O)CCCCC3)nn2)oc(C(C)=O)c1C(=O)OC assignedcategory=mid
compound="CN1C(=O)C2C=CC(C(O)c3ccc(-c4ccccc4)s3)N(N(c3ccccc3)c3ccccc3)C2C1=O (centres undefined)" assignedcategory=mid
compound="CCCCCN1CC=CC23O[C@@H]4/C=C\\CCCOC(=O)C4[C@H]2C(=O)N(C(CO)C(C)C)[C@@H]3C1=O (some centres undefined)" assignedcategory=mid
compound=COCCOC(=O)N1C(=O)[C@@]2(c3cc(C#CCCO)ccc31)[C@H](C(=O)N1CCc3cc(OC)c(OC)cc3C1)[C@H]1C(=O)O[C@H](c3ccccc3)[C@H](c3ccccc3)N1[C@@H]2c1ccc(O)cc1 assignedcategory=mid
compound="CN1C(=O)C2C=CC(C(O)C3=C[C@H]4C[C@@H](C3)C4(C)C)N(Nc3ccccc3)C2C1=O (some centres undefined)" assignedcategory=lo

Lookup: Using the reported composite z-score, which band applies to C=C(C)C1C(=C)CN([C@H](CO)c2ccccc2)C1=O (some centres undefined) ?
Found: lo

Lookup: Now consider `O=C1O[C@H](c2ccccc2)[C@H](c2ccccc2)N2[C@H]1[C@@H](C(=O)NC[C@H](O)c1ccccc1)[C@]1(C(=O)Nc3ccccc31)[C@H]2c1ccc(OCCO)cc1` and answer again.
Found: mid

Lookup: Now consider `COc1cc2c(cc1OC)CN(C(=O)[C@H]1[C@@H]3C(=O)O[C@@H](c4ccccc4)[C@@H](c4ccccc4)N3[C@@H](c3ccc(O)cc3)[C@]13C(=O)Nc1ccc(C#CC4=CCCCC4)cc13)CC2` and answer again.
Found: lo

Lookup: Now consider `C=CCNC(=O)[C@@H]1[C@H]2C(=O)O[C@H](c3ccccc3)[C@H](c3ccccc3)N2[C@H](c2ccc(OCCO)cc2)[C@@]12C(=O)Nc1ccc(C#CCCO)cc12` and answer again.
Found: lo
